Measured pIC50 of individual entries
target: EGFR kinase (Homo sapiens (Human), UniProt P00533)
Sequence (P00533 25-1210): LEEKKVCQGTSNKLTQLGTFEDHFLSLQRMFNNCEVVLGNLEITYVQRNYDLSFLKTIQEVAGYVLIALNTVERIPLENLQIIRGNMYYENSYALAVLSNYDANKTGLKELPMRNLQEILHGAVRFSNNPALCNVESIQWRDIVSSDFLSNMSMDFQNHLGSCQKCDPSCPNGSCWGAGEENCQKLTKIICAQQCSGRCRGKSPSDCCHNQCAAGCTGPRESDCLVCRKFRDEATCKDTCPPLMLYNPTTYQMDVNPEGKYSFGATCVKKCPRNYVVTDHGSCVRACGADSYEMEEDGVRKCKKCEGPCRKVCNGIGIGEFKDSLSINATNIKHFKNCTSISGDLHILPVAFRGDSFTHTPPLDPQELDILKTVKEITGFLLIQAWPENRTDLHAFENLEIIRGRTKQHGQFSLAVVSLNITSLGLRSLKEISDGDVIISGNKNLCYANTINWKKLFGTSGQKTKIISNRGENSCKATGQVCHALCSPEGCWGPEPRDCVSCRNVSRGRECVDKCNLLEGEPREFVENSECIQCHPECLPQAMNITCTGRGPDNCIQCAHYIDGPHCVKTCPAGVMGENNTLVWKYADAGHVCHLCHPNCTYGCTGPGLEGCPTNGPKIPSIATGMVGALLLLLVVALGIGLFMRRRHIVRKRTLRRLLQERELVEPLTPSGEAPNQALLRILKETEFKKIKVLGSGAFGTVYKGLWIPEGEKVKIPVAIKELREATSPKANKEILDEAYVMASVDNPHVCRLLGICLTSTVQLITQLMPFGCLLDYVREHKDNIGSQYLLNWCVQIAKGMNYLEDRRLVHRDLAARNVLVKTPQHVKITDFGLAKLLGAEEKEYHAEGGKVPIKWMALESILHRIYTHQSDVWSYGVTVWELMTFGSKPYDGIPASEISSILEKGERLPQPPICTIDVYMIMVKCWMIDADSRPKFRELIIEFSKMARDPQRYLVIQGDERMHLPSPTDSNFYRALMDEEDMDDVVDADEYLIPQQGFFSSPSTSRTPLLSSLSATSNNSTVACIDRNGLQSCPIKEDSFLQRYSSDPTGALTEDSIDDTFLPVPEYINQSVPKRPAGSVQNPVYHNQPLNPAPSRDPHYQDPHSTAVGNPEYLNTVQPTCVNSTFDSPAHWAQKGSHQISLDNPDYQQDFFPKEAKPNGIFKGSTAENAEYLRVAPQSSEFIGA
pIC50: −log10 of the molar value.

Example entries and their recorded answers appear below.
compound | result value
O[C@H]1CO[C@H]2[C@@H]1OC[C@@H]2Oc1ccc(Nc2ncnc3ccsc23)cc1Cl [Example U] | < 7.00
O=C(O[C@H]1CO[C@H]2[C@@H]1OC[C@@H]2Oc1ccc(Nc2ncnc3ccsc23)cc1Cl)c1ccccc1 [Example EE] | < 6.30
CC(=O)O[C@H]1CO[C@H]2[C@@H]1OC[C@@H]2Oc1ccc(Nc2ncnc3ccsc23)cc1Cl [Example CC] | < 6.30

Next up:
Measured pIC50 of COc1cc2ncnc(Nc3ccc(O[C@H]4CO[C@H]5[C@@H]4OC[C@@H]5OCc4ccccc4)cc3)c2cc1OC [Example Z] : < 7.00

----------
tested on: IL-1β (LPS-stimulated PBMCs); test: IL-1β expression in LPS-stimulated PBMCs in the presence of MIF inhibitors (ELISA); assay type: cell-based; settings: Homo sapiens, PBMC, LPS 10 ng/ml and LPS+MIF, ELISA of supernatant
value type: IC50

smiles entry | IC50
CCOC(=O)c1c(Nc2ccc(O[C@H]3CO[C@H]4[C@@H]3OC[C@@H]4O)c(Cl)c2)c2ccccc2n(Cc2ccccc2)c1=O | > 500 nM

Next up:
Measured IC50 of "N#Cc1c(Nc2ccc(O[C@H]3CO[C@H]4[C@@H]3OC[C@@H]4O)c(Cl)c2)c2ccccc2n(Cc2ccccc2)c1=O" : > 100 nM

----------
Measured IC50 of individual entries
test system: IL-1β (LPS-stimulated PBMCs); experiment: IL-1β expression in LPS-stimulated PBMCs in the presence of MIF inhibitors (ELISA); type: cell-based; settings: Homo sapiens, PBMC, LPS 10 ng/ml and LPS+MIF, ELISA of supernatant

smiles entry | IC50
CC(=O)O[C@H]1CO[C@H]2[C@@H]1OC[C@@H]2Oc1c(C#N)c(=O)n(Cc2ccc(F)cc2)c2ccccc12 | > 10 µM
CCOC(=O)c1c(O[C@H]2CO[C@H]3[C@@H]2OC[C@@H]3OC(C)=O)c2ccccc2n(Cc2ccccc2)c1=O | > 10 µM
N#Cc1c(O[C@H]2CO[C@H]3[C@@H]2OC[C@@H]3OC(=O)CCl)c2ccccc2n(Cc2ccccc2)c1=O | > 0.5 µM
CCOC(=O)c1c(O[C@H]2CO[C@@H]3C=CO[C@H]23)c2ccccc2n(Cc2ccccc2)c1=O | > 10 µM
CCOC(=O)c1c(O[C@H]2CO[C@H]3[C@@H]2OC[C@@H]3O)c2ccccc2n(CC)c1=O | > 1 µM

Measured IC50 of "CCOC(=O)c1c(O[C@H]2CO[C@H]3[C@@H]2OC[C@@H]3OC(=O)CCl)c2ccccc2n(CC)c1=O" : > 0.5 µM

Measured IC50 of "CCOC(=O)c1c(O[C@H]2CO[C@H]3[C@@H]2OC[C@@H]3OC(C)=O)c2ccccc2n(CC)c1=O" : > 10 µM

----------
system: IL-1β (LPS-stimulated PBMCs); assay: IL-1β expression in LPS-stimulated PBMCs in the presence of MIF inhibitors (ELISA); assay type: cell-based; details: Homo sapiens, PBMC, LPS 10 ng/ml and LPS+MIF, ELISA of supernatant
value type: IC50

compound | IC50
N#Cc1c(O[C@H]2CO[C@H]3[C@@H]2OC[C@@H]3O)c2ccccc2n(Cc2ccc(F)cc2)c1=O [Example N] | > 10000 nM
CCOC(=O)c1c(O[C@H]2CO[C@H]3[C@@H]2OC[C@@H]3O)c2ccccc2n(Cc2ccccc2)c1=O [Example E] | > 500 nM

Next up:
Measured IC50 of CC(=O)O[C@H]1CO[C@H]2[C@@H]1OC[C@@H]2Oc1c(C#N)c(=O)n(Cc2ccccc2)c2ccccc12 [Example L] : > 1000 nM
